// reported GI50 for each item listed
System: SNB-75
assayProcedure: NCI tumour cell line growth inhibition, 48 h
Calls of active or inactive are those of the source. No stated cut-off is given here; in the data, active = GI50 up to about 1.1 µM and inactive = higher.

Below, each entry is followed by its recorded GI50 result.
COc1cc([C@@H]2c3cc4c(cc3[C@@H](NC(=O)c3ccc(N)cc3)C3COC(=O)[C@@H]32)OCO4)cc(OC)c1O (some centres undefined) ... 1.29 µM (inactive)
O=C(O)c1cc(O)c2c(c1)C([C@@H]1c3cccc(O)c3C(=O)c3c(O)cc(C(=O)O)cc31)c1cccc(O)c1C2=O (some centres undefined) ... 25.3 µM (inactive)
O=C(CNc1ccc2c(=S)c3ccccc3[nH]c2c1)Nc1ccccc1-c1ccccc1NC(=O)CNc1ccc2c(=S)c3ccccc3[nH]c2c1 ... 26.5 µM (inactive)

Now look at this entry.
Prompt: Suppose we examine the compound N=C(N)NC1C(O)C(O)C(O)C(NC(=N)N)C1O (centres undefined) ; what GI50 value has been reported?
Response: > 100 µM (inactive)

---

// reported GI50 for each item listed
System: A498
assayProcedure: NCI tumour cell line growth inhibition, 48 h
Calls of active or inactive are those of the source. Rule as the data show it: active = GI50 up to about 1.1 µM and inactive = higher.

C=CCN(c1cc(OC)c2[nH]cc(C)c2c1[N+](=O)[O-])S(C)(=O)=O ... > 100 µM (inactive)
O=C(CC(O)(c1ccccc1)c1ccc(Cl)cc1)NC(=O)c1ccccc1O (centres undefined) ... 1.95 µM (inactive)
COc1ccc(C(=C2C(=O)N(c3ccccc3)C(=O)C2=C(C)C)c2ccc(OC)cc2)cc1 ... 2.94 µM (inactive)
CC1CCN(c2nnc(Cl)cc2C(=O)c2ccccc2)CC1 ... 35.7 µM (inactive)
C=C(C)CNCC(=C)C.Oc1c(Cl)c(Cl)c(Cl)c(Cl)c1Cl ... 20.4 µM (inactive)

Prompt: Suppose we examine the compound `O=C(CC/C=C(/CS(=O)(=O)c1ccccc1)S(=O)(=O)c1ccccc1)c1ccccc1` ; what GI50 value has been reported?
Response: > 100 µM (inactive)

Prompt: Suppose we examine the compound `O=C(/C=C/c1ccc(O)cc1)NCCc1ccc(O)cc1` ; what GI50 value has been reported?
Response: > 12.5 µM (inactive)

Prompt: Suppose we examine the compound `Cc1cc(C(=C2C=CC(=N)C=C2)c2ccc(N)cc2)ccc1N` ; what GI50 value has been reported?
Response: 32.5 µM (inactive)

Prompt: Suppose we examine the compound O=C(O)c1cc(O)c2c(c1)C([C@@H]1c3cccc(O)c3C(=O)c3c(O)cc(C(=O)O)cc31)c1cccc(O)c1C2=O (some centres undefined) ; what GI50 value has been reported?
Response: 22.7 µM (inactive)

---

Tested on: MDA-MB-231
assayProcedure: NCI tumour cell line growth inhibition, 48 h
Calls of active or inactive are those of the source. Rule as the data show it: active = GI50 up to about 1.1 µM and inactive = higher.
Hi! Could you answer with just one of these? active, inactive

O=C(O)CCC(=O)c1ccc2c(c1)C(C(=O)O)CC2 (stereo not drawn) ... inactive

Prompt: # lookup: test call for `CC1=NN(c2nc(N)nc(/C(C#N)=C/c3ccccc3O)n2)C(C)(C)C1`
Response: inactive

Prompt: # lookup: test call for `O=C(c1ccccc1)c1ccc(N2C(=O)/C(=C/Cc3ccco3)N=C2c2ccccc2)c(N2C(=O)/C(=C/Cc3ccco3)N=C2c2ccccc2)c1`
Response: inactive

Prompt: # lookup: test call for `O=C(c1ccc2ccccc2c1)N(Cc1cccnc1)C(=S)N(Cc1cccnc1)C(=O)c1ccc2ccccc2c1`
Response: inactive

Prompt: # lookup: test call for COc1cc(C2c3cc4c(cc3OC(NNC(N)=S)C2C)OCO4)cc(OC)c1OC (stereo not drawn)
Response: active

Prompt: # lookup: test call for C/C(=N\OCC(O)CNCCSCc1ccccc1)c1ccccc1Cl (stereo not drawn)
Response: inactive
